Target: T1, human Nectin-4 (human, UniProt Q96NY8 32-510)
T1 construct: whole, on cells; Cell-surface target of the FACS, endocytosis and proliferation assays (CHO-huNectin4 S8 cells, BT474 cells); the assay field says which cells; also called huNectin4; PVRL4
T1 sequence (looked up): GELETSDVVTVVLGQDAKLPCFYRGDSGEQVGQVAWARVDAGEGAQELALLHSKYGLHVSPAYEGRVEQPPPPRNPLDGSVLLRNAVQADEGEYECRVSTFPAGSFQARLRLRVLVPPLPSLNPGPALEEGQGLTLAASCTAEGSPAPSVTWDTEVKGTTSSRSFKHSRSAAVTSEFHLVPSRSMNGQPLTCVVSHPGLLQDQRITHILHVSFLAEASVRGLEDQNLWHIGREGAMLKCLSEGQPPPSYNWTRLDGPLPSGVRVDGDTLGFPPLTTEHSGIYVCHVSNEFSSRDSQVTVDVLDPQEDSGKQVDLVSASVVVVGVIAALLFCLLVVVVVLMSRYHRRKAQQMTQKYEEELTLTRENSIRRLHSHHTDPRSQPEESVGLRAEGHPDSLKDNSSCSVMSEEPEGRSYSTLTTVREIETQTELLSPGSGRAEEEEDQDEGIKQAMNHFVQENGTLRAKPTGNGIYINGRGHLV
Assay: FACS on BT474 cells
MEASUREMENT_KIND: EC50 (µg/mL)
One number for each entry, in µg/mL.

>>> test_result("5M21 hz10 (antibody, human IgG1, kappa, V domains shown, Humanized) VH: QVQLVQSGAEVKKPGASVKVSCKASGYTFTTYYIHWVRQAPGQRLEWMGWIYPGNVNTKYNEKFKGRVTITADKSASTAYMELSSLRSEDTAVYYCARGLYYFDYWGQGTLVTVSS VL: DIQMTQSPSSLSASVGDRVTITCKASQSVSNDVAWYQQKPGKVPKLLIYYASNRYTGVPSRFSGSGSGTDFTLTISSLQPEDVATYYCQQDYSSPYTFGGGTKVEIKR")
44.3
>>> test_result("chimeric antibody 5M21 xiIgG (antibody, V domains shown) VH: QVQLQQSGPELVKPGASVRITCKASGYTFTTYYIHWVKQRPGQGLEWIGWIYPGNVNTKYNEKFKGKATLTADKSSSTAYMQLSSLTSEDSAVYFCARGLYYFDYWGQGTTLTVSS VL: SIVMTQTPKFLLVSAGDRLTITCKASQSVSNDVAWYQQKPGQSPKLLIYYASNRYTGVPDRFTGSGYGTDFTFTISTVQAEDLAVYFCQQDYSSPYTFGGGTKLEIKR")
46.1
>>> test_result("5M21 hz01 (antibody, human IgG1, kappa, V domains shown, Humanized) VH: QVQLVQSGAEVKKPGASVKVSCKASGYTFTTYYIHWVRQAPGQRLEWMGWIYPGNVNTKYNEKFKGRVTITRDTSASTAYMELSSLRSEDTAVYYCARGLYYFDYWGQGTLVTVSS VL: DIQMTQSPSSLSASVGDRVTITCKASQSVSNDVAWYQQKPGKVPKLLIYYASNRYTGVPSRFSGSGSGTDFTLTISSLQPEDLATYFCQQDYSSPYTFGGGTKVEIKR")
48.1
>>> test_result("Enfortumab (antibody, human IgG1, kappa, V domains shown, also called control antibody Enfortumab) VH: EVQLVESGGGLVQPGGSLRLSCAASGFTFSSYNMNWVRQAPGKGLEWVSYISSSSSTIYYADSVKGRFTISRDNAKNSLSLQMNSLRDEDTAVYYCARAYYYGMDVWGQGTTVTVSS VL: DIQMTQSPSSVSASVGDRVTITCRASQGISGWLAWYQQKPGKAPKFLIYAASTLQSGVPSRFSGSGSGTDFTLTISSLQPEDFATYYCQQANSFPPTFGGGTKVEIKR")
57.2
>>> test_result("5M21 hz00 (antibody, human IgG1, kappa, V domains shown, Humanized) VH: QVQLVQSGAEVKKPGASVKVSCKASGYTFTTYYIHWVRQAPGQRLEWMGWIYPGNVNTKYNEKFKGRVTITRDTSASTAYMELSSLRSEDTAVYYCARGLYYFDYWGQGTLVTVSS VL: DIQMTQSPSSLSASVGDRVTITCKASQSVSNDVAWYQQKPGKVPKLLIYYASNRYTGVPSRFSGSGSGTDFTLTISSLQPEDVATYYCQQDYSSPYTFGGGTKVEIKR")
52.2

Given the binder 5M21 hz11 (antibody, human IgG1, kappa, V domains shown, Humanized) VH: QVQLVQSGAEVKKPGASVKVSCKASGYTFTTYYIHWVRQAPGQRLEWMGWIYPGNVNTKYNEKFKGRVTITADKSASTAYMELSSLRSEDTAVYYCARGLYYFDYWGQGTLVTVSS VL: DIQMTQSPSSLSASVGDRVTITCKASQSVSNDVAWYQQKPGKVPKLLIYYASNRYTGVPSRFSGSGSGTDFTLTISSLQPEDLATYFCQQDYSSPYTFGGGTKVEIKR , write its reported EC50.
44.5
